Target: ATX (Homo sapiens, UniProt Q13822)
Assay: IC50 Eleanna (Table S2, method not described)
Assay type: biochemical
parameter: IC50 (µM)

molecule	result
CCOC(=O)c1c(CN2CCCCC2)n(Cc2ccccc2)c2cc(Br)c(O)cc12 [KM-14]	0.8
O=C(Nc1c2c(nn1-c1ccc([N+](=O)[O-])cc1)CSC2)c1cccc2ccccc12 [SC-49]	0.2

* * *

Target: ATX (Homo sapiens)
Test: Amplex Red Lyso-phospholipase D assay, human ATX
Type: biochemical
Design: purchased Sino Biological
Conditions: in vitro IC50 (hATX 1nM), Table S2, hATX 1nM
Protocol: All compounds proposed were assessed for their ATX inhibitory activity in vitro using the Amplex Red assay. The Amplex Red Lyso-phospholipase D assay is a fluorometry-based assay providing a sensitive method for measuring Lyso-phospholipase D (ATX) activity in vitro. In this enzyme-coupled assay, ATX activity is monitored indirectly using 10-acetyl-3,7-dihydrophenoxazine (Amplex Red reagent), a sensitive fluorogenic probe for H2O2. […]
pIC50: −log10 of the molar value.
parameter: pIC50

compound	result
CCOC(=O)c1sc(SCc2ccccc2)c2c1CC(c1ccc(C)cc1)CC2O (centres unmarked) [KM03601]	5.00
CCOC(=O)c1c(CN2CCCC2)n(-c2ccccc2)c2cc(Br)c(OC)cc12 [KM-3]	4.27
O=C(Nc1c2c(nn1-c1ccc([N+](=O)[O-])cc1)CSC2)c1cccc2ccccc12 [SC-49]	5.05
COc1ccccc1NC(=S)N1CCn2cccc2C1c1ccc(OC)c(OC)c1 (centres unmarked) [KM-41]	4.42
O=C1Nc2ccccc2/C1=C/c1cc2ccccc2n1S(=O)(=O)c1ccccc1 [SCR01013]	4.37

* * *

Molecular target: mouse ATX (Mus musculus, UniProt Q9R1E6)
Construct: purchased Sino Biological
Assay: Mode of inhibition, modified Amplex assay, Lineweaver-Burk plots
Type: biochemical
Details: various LPC and inhibitor concentrations

compound	tested_target	Mode of Inhibition
CCOC(=O)C1CCN(C(=O)Cc2c(Sc3ccc(Cl)cc3)[nH]c3ccccc23)CC1	mouse ATX (Mus musculus, UniProt Q9R1E6)	mixed
O=C(CCN1CCN(C(=O)OCc2cc(Cl)cc(Cl)c2)CC1)c1ccc2[nH]c(=O)oc2c1 [PF-8380, reference compound]	mouse ATX (Mus musculus, UniProt Q9R1E6)	competitive
COc1cccc(NC(=S)N2CCn3cccc3C2c2ccc(OC)c(OC)c2)c1 (stereo not drawn)	mouse ATX (Mus musculus, UniProt Q9R1E6)	competitive
CCOC(=O)c1c(CN2CCCCC2)n(Cc2ccccc2)c2cc(Br)c(O)cc12	mouse ATX (Mus musculus, UniProt Q9R1E6)	mixed
CCOC(=O)c1sc(SCc2ccccc2)c2c1CC(c1ccc(C)cc1)CC2O (stereo not drawn)	mouse ATX (Mus musculus, UniProt Q9R1E6)	competitive

* * *

Catalogue of compounds with associated IC50
Biological target: ATX (Homo sapiens)
Assay: Amplex Red Lyso-phospholipase D assay, human ATX
Format: biochemical
Parameters: purchased Sino Biological
Conditions: in vitro IC50 (Sino hATX 2nM), Table S2, Sino hATX 2nM
Procedure: All compounds proposed were assessed for their ATX inhibitory activity in vitro using the Amplex Red assay. The Amplex Red Lyso-phospholipase D assay is a fluorometry-based assay providing a sensitive method for measuring Lyso-phospholipase D (ATX) activity in vitro. In this enzyme-coupled assay, ATX activity is monitored indirectly using 10-acetyl-3,7-dihydrophenoxazine (Amplex Red reagent), a sensitive fluorogenic probe for H2O2. […]

compound	IC50
Cc1ccc(-n2nc3c(c2NC(=O)c2cccc4ccccc24)C[S+]([O-])C3)cc1 (stereo not shown)	> 30 µM
Cc1ccc(S(=O)(=O)n2cc(C=C3C(=O)Nc4ccccc43)c3ccccc32)cc1	30 µM
O=C(Nc1c2c(nn1-c1ccccc1)CS(=O)(=O)C2)c1cccc2ccccc12	> 30 µM
CCOC(=O)c1sc(SCc2ccccc2)c2c1CC(c1ccc(C)cc1)CC2O (stereo not shown)	30.6 µM
